target: 5HT2A receptor (h5HT2A-Dx-U2OS cells) (Homo sapiens); construct: beta-galactosidase enzyme fragment for complementation (the print says only EFC; from my own knowledge of PathHunter it is the ProLink tag on the receptor's C-terminus); assay: cell-based; settings: serotonin-induced; h5HT2A-Dx-U2OS cells; 90 minutes at 37° C.; read-out: IC50 (SEM), antagonist of the recruitment of β-arrestin 2 to the 5HT2A receptor
Sequence (P28223 whole entry, the tested form may be a part): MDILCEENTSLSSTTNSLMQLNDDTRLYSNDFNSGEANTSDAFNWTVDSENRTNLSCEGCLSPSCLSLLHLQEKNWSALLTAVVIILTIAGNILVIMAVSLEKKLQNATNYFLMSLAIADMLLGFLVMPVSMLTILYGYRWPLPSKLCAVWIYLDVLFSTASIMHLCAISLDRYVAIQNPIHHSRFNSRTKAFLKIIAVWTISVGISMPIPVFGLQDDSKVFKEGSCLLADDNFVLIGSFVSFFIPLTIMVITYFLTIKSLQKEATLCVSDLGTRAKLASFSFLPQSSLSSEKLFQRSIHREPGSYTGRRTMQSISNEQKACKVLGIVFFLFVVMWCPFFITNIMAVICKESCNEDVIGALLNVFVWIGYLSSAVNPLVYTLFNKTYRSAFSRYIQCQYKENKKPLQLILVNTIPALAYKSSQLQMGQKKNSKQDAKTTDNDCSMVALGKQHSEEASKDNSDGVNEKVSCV

| compound | IC50 [nM] |
| --- | --- |
| COc1ccc(NC(=O)Nc2ccc(F)cc2F)cc1-c1c(Br)cnn1C [Nelotanserin, nelotanserin] | 3.74 |
